Biological target: Human AMPK α2β2γ1 (Homo sapiens, UniProt O43741+P54646)
Construct: The full length cDNAs of human AMPK β2 (NM_005399.3) and human AMPK α2 (NM_006252.3); The full length cDNAs of human AMPK β2 (NM_005399.3); the full length cDNA of human AMPK γ1 (NM_002733.3) had been inserted into pET28b(+); 6×His (N); made in house; host or cells: Escherichia coli BL21 CodonPlus (DE3)-RIL
Sequence (P54646 whole entry): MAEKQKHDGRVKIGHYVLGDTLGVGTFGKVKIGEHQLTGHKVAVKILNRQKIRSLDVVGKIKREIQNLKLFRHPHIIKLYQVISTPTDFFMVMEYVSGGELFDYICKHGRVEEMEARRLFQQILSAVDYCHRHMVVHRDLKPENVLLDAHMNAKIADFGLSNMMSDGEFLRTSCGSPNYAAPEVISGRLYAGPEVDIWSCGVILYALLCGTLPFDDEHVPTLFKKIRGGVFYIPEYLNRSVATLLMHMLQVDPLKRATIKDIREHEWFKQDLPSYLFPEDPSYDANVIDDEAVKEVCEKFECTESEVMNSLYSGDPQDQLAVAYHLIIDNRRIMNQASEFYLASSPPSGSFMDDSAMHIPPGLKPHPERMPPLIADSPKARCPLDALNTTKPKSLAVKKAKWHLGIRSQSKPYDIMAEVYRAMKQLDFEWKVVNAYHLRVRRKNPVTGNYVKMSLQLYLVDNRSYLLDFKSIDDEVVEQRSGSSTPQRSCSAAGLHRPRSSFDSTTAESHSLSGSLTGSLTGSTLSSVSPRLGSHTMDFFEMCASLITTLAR
Sequence (O43741 whole entry): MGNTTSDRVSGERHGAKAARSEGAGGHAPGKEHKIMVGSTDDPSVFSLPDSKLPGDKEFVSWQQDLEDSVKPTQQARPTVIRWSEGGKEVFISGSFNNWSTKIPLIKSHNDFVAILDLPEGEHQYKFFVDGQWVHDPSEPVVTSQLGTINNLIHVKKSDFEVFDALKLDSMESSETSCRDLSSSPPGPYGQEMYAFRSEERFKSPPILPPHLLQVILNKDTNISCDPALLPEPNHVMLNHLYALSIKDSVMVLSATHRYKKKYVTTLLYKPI
Sequence (P54619 whole entry partner): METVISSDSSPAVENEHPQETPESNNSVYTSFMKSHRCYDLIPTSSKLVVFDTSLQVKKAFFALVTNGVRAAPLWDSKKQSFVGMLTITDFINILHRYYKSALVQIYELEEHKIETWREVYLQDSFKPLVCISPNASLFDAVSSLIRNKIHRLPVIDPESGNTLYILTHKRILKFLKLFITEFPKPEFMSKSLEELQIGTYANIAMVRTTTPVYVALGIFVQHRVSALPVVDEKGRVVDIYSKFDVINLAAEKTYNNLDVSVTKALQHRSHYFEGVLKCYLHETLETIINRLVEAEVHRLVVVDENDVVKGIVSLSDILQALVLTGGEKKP
Test: Test Example 2: activation of phosphorylated human AMPK α2β2γ1 (mobility-shift kinase assay, FL-Peptide 7)
Assay type: biochemical
Conditions: maximum rate of increase in activity within the measurement range, control = 100%; read-out: Emax
For each of the compounds below, state its Emax.
Answers are plain numbers, in %.

INSERT INTO results (compound, target_under_test, recorded_result) VALUES
  ('CN1CCC(Oc2ccc(-c3ccc(-c4nc5cc(O[C@@H]6CO[C@H]7[C@@H]6OC[C@H]7O)[nH]c5cc4F)cc3)cc2)C1=O (some centres unmarked) [Compound I-2-32]', 'Human AMPK α2β2γ1 (Homo sapiens, UniProt O43741+P54646)', 379),
  ('O[C@@H]1CO[C@H]2[C@@H]1OC[C@H]2Oc1cc2nc(-c3ccc(-c4ccc(OC5COC5)cc4)cc3)c(F)cc2[nH]1 [Compound I-1-28]', 'Human AMPK α2β2γ1 (Homo sapiens, UniProt O43741+P54646)', 596);

Hi! Can you tell me Emax for each of these compounds?
1. CCP(=O)(CC)c1ccc(-c2ccc(-c3nc4cc(O[C@@H]5CO[C@H]6[C@@H]5OC[C@H]6O)[nH]c4cc3F)cc2)cc1 [Compound I-2-72]
2. COCCOc1ccc(-c2ccc(-c3nc4cc(O[C@@H]5CO[C@H]6[C@@H]5OC[C@H]6O)[nH]c4cc3F)cc2)cn1 [Compound I-2-40]
3. CNS(=O)(=O)c1ccc(-c2ccc(-c3nc4cc(O[C@@H]5CO[C@H]6[C@@H]5OC[C@H]6O)[nH]c4cc3F)cc2)nc1 [Compound I-1-32]
4. CC(=O)N[C@H]1CC[C@H](c2ccc(-c3nc4cc(O[C@@H]5CO[C@H]6[C@@H]5OC[C@H]6O)[nH]c4cc3F)cc2)CC1 [Compound I-1-41]
5. OC[C@@H]1C[C@H](Oc2cc3nc(-c4ccc(C5(CO)CC5)cc4)c(F)cc3[nH]2)CO1 [Compound I-2-80]

[591, 384, 456, 562, 558]

Give Emax for all compounds that follow.
1. CCOCCOc1ccc(-c2ccc(-c3nc4cc(O[C@@H]5CO[C@H]6[C@@H]5OC[C@H]6O)[nH]c4cc3F)cc2)cc1 [Compound I-2-61]
2. COCCS(=N)(=O)c1ccc(-c2ccc(-c3nc4cc(O[C@@H]5CO[C@H]6[C@@H]5OC[C@H]6O)[nH]c4cc3F)cc2)cc1 (some centres unmarked) [Compound I-2-96]
3. CNS(C)(=O)=Nc1ccc(-c2ccc(-c3nc4cc(O[C@@H]5CO[C@H](CO)C5)[nH]c4cc3F)cc2)cc1 (some centres unmarked) [Compound I-2-46]
4. CP(C)(=O)c1ccc(-c2ccc(-c3nc4cc(O[C@@H]5CO[C@H]6[C@@H]5OC[C@H]6O)[nH]c4cc3F)cc2)cc1 [Compound I-2-56]
5. CN1CCC(Oc2ccc(-c3ccc(-c4nc5cc(O[C@@H]6CO[C@H]7[C@@H]6OC[C@H]7O)[nH]c5cc4F)cc3)cc2)C1 (some centres unmarked) [Compound I-1-26]

1: 562; 2: 631; 3: 699; 4: 618; 5: 353

// each compound listed below needs its Emax
1. OCCSc1ccc(-c2ccc(-c3nc4cc(O[C@@H]5CO[C@H]6[C@@H]5OC[C@H]6O)[nH]c4cc3F)cc2)cc1 [Compound I-2-16]
2. CS(C)(=O)=Nc1ccc(-c2ccc(-c3nc4cc(O[C@H]5CCOC5)[nH]c4cc3F)cc2)cc1 [Compound I-1-46]

623
276

Batch of 2 compounds: report Emax for each.
1. CP(C)(=O)c1ccc(-c2ccc(-c3nc4cc(O[C@@H]5CO[C@H](CO)C5)[nH]c4cc3F)cc2)cc1 [Compound I-2-65]
2. O[C@@H]1CO[C@H]2[C@@H]1OC[C@H]2Oc1cc2nc(-c3ccc(-c4ccc(O[C@H]5CCOC5)cc4)cc3)c(F)cc2[nH]1 [Compound I-2-85]

1: 673; 2: 500
